- assayMethodText: Inhibition of P-gp (unknown origin) expressed in human LCC6MDR cells assessed as reversal of paclitaxel resistance after 5 days by MTS/PMS assay
pEC50: −log10 of the molar value.
endpoint: pEC50

Worked cases, pEC50 given:
- O=c1cc(-c2ccccc2)oc2cc(OCCOCc3cn(CCOCCOCCOc4ccc(-c5oc6ccccc6c(=O)c5OCc5ccccc5)cc4)nn3)ccc12: 6.42
- COC(=O)c1cccc(COc2c(-c3ccc(OCCOCCOCCn4cc(CCCCOc5ccc(-c6cc(=O)c7cc(C)ccc7o6)cc5)nn4)cc3)oc3ccccc3c2=O)c1: 6.38

A = COC(=O)c1cccc(COc2c(-c3ccc(OCCOCCn4cc(CCCOc5ccc6c(=O)cc(-c7ccccc7)oc6c5)nn4)cc3)oc3ccccc3c2=O)c1
B = O=c1cc(-c2ccc(OCCOCCOCCn3cc(CCCCOc4ccc5c(=O)cc(-c6ccccc6)oc5c4)nn3)cc2)oc2ccccc12
Input line: Lab log: flag the item ( A or B ) with the smaller pEC50 figure. // caller expects the label of the chosen entry
Output line: A
(A: 6.21, B: 6.44)

I = COC(=O)c1cccc(COc2c(-c3ccc(OCCOCCn4cc(CCCCOc5ccc(-c6cc(=O)c7cc(C)ccc7o6)cc5)nn4)cc3)oc3ccccc3c2=O)c1
II = O=c1cc(-c2ccc(OCCOCCOCCn3cc(CCCOc4ccc(-c5cc(=O)c6ccc(F)cc6o5)cc4)nn3)cc2)oc2ccccc12
Input line: Lab log: flag the item ( I or II ) with the smaller pEC50 figure. // caller expects the label of the chosen entry
Output line: I
(I: 6.37, II: 6.59)
